System: primary human hepatic stellate cells (donor 1)
Assay: scaled lipid accumulation score (0 = DMSO-like, 1 = nortriptyline-like); higher = stronger HSC inactivation (lipid re-accumulation), active = hit call of the paper
Details: library stock concentration: 10 mM; 48 h
In all, about 5,800 compounds went through this assay and about 620 (11%) showed activity. The sample as a whole holds a higher share of actives than the screen did.
parameter: scaled lipid accumulation score

INSERT INTO results (molecule, reported_value) VALUES
  ('C1=N/C2=N/c3ccc(OCCN4CCCC4)c(c3)COC/C=C/COCc3cccc(c3)C(=C1)N2 [Pacritinib (SB1518)]', '0.41 (inactive)'),
  ('CCCCCCCCCCCCCCCCCCOCC(COP(=O)([O-])OCC[N+](C)(C)C)OC (stereo not drawn)', '≤ -0.024 (inactive)'),
  ('CC(C)S(=O)(=O)Nc1ccc(F)c(C(=O)c2c[nH]c3ncc(-c4cccnc4)cc23)c1F', '0.059 (inactive)'),
  ('COC(=O)C(C)c1ccc(C(=O)c2cccs2)cc1 (stereo not drawn)', '≤ 0 (inactive)'),
  ('COc1ccc([C@@H]2CC(=O)c3c(O)cc(O[C@@H]4O[C@H](CO)[C@@H](O)[C@H](O)[C@H]4O[C@@H]4O[C@@H](C)[C@H](O)[C@@H](O)[C@H]4O)cc3O2)cc1O', '0.039 (inactive)'),
  ('C=CCNC(N)=S', '≤ 0 (inactive)'),
  ('Cc1ccc2nc(NC(=O)CSc3nc4c(c(=O)n3-c3ccccc3)SCC4)sc2c1', '0.76 (inactive)'),
  ('C=C1CC[C@H](O)C/C1=C/C=C1\CCC[C@]2(C)[C@@H]([C@H](C)CCCC(C)(C)O)CC[C@@H]12', '≤ 0 (inactive)');
